Consider the following binders; for each one, report its EC50.
test target: NiV-BD G (Nipah virus, Bangladesh strain (NiV-BD))
method: ELISA, G protein coated at 1 µg/mL, antibody titrated 1:3 from 20 µg/mL
Please provide the amount together with its unit, number first.

1A9 (antibody, V domains shown) VH: VQLQESGPGLVKPSETLSLTCAVSGDSISTGYDWTWIRQPPGKGLEWIGYIGGSSGNTNYNPSLKSRVTISKDTSKNQFSLKLSSVTAADTAVYYCARDGTRVYYYGLDSWGQGVVVTVSS VL: ETVVTQEPSLSVSPGGTVTLTCGLSSGSVSTSNYPSWFQQTPGQAPRMLIYSTNIRPSGVPNRFSGSILGNKAALTITGAQADDESDYYCFFSMVSGTSVFGGGTRLTVLR ... 0.0183 µg/mL
1F9 (antibody, V domains shown) VH: QVQLQESGPGLVKPSETLSLSCAVSGGSFSDYWWGWIRQSPGKGLEWIGSIYGSSGRTAYSPSLKSRATISRDTSKNQLFLRLTSVTAADTGVYYCTNERFYGDSNRFDVWGPGVLVTVSS VL: QPVLTQPTSLSASPGASARLTCTLSSGISVGNYRIFWYQQKPGSPPRYLLNYHTDSDKHQGSGVPSRFSGSKDASANAGILLISGLQSEDEADYYCMIWHNNVDVFGGGTKLTVLR ... 0.015 µg/mL
1D11 (antibody, V domains shown, also called antibody 1D11; monoclonal antibody 1D11; copies: 2 + 2) VH: EVQLVESGGGLVQPGGSLRLSCAASGFTFSSYDMSWVRQAPGKGLEWVSSISSVTSYISYADSVKGRFTISRDNAKNSLSLQMNSLKTEDTAVYYCTTENWNFDFWGQGVLVTVSS VL: DVVMTQSPLSLATTPGQPASISCRSSQSLVHSNGNTYLSWYQQKPGQPPRLLIYEVSNRDSGVPDRFSGSGAGTDFTLKISRVEAEDVGVYYCGQGTHWPPFTFGPGTKLDIK ... 0.00991 µg/mL

Now for the binder whose EC50 we want.
What does the data say about its EC50? Entry: 2B6 (antibody, V domains shown, also called antibody 2B6; monoclonal antibody 2B6; copies: 2 + 2) VH: QVQLVQSGAEVKKPGASVKLSCKASGYTFTSFYINWVRQAPGQVLEWMGWINPSNGDTGYAQKFQGRVTMSRDTSTSTAYMELSSLRSEDTAVYYCTRETVGSGTFDCWGQGVLVTVSS VL: DIVMTQTPLSLSVTLGEPASISCRSSQSLVYSAGKTYLDWYLQKPGQSPQLLIYLVSKRASGVPDKFSGSGSGTDFTLKISRVEAEDVGVYYCMQALRSPLTFGGGTKVELK 0.0054 µg/mL
